- Target Or System: Histidine biosynthesis bifunctional protein HisB (Escherichia coli O26:H11 str. CFSAN001629)
- Assay Text: Inhibition of Escherichia coli imidazoleglycerol phosphate dehydratase using imidazole glycerol phosphate as substrate incubated for 30 min prior to substrate addition measured for 16 min by spectrophotometric analysis
Property Measured: IC50 (µM)

smiles_string=CCOC(=O)c1[nH]c(C=O)c(C(=O)OCC)c1CC result_value=5.6
smiles_string=COC(=O)c1[nH]c(C=O)c(C(=O)OC)c1C(C)C result_value=8.3

1. CCc1c(C=O)[nH]c(C(=O)OCc2ccccc2)c1C
2. CCOC(=O)c1[nH]c(C=O)cc1C
Input: Between 1 and 2 , which one shows the larger IC50 value? Answer with the label corresponding to your selection.
Output: 1
(1: 24 µM, 2: 9.2 µM)

P. Cc1c(C=O)[nH]c(C(=O)OCc2ccccc2)c1C
Q. CCOC(=O)c1[nH]c(C=O)c(C)c1C
Input: // pick min by IC50: P , Q Answer with the label corresponding to your selection.
Output: P
(P: 8.9 µM, Q: 17.6 µM)

A. O=Cc1[nH]c(C(=O)OCc2ccccc2)c(Cc2ccccc2)c1Cc1ccccc1
B. CCOC(=O)CCc1c(C(=O)OCC)[nH]c(C=O)c1CC(=O)OCC
C. Cc1c(C=O)[nH]c(C=O)c1C
Input: Arrange the 3 molecules from largest to smallest IC50. Please list the labels in the order you were asked to rank them.
Output: B, C, A
